SYSTEM_TESTED: SNX27, Q96L92
METHOD_NOTES: holdup assay
Design: key: below the threshold = too weak to quantify, mostly under pKd 3.1 to 4
RUN_CONDITIONS: plain residues with an end cap or a label only (N-terminal biotin on a linker: ado-ado)
Rule: pKd of 5 or more gives met; anything lower gives not met.

Say whether RDPPAEWTRV [PTPN18, Q99952] shows pKd of 5 or more. not met

Say whether TGLWKHETTV [ADGRA3, Q8IWK6] shows pKd of 5 or more. met

Say whether AEASVACSLC [PTGIR, P43119] shows pKd of 5 or more. not met

Say whether TNSRHGETTV [FZD2, Q14332] shows pKd of 5 or more. met

Say whether SVTSERETNI [SLC16A7, O60669] shows pKd of 5 or more. not met

Say whether ARGPPRESEV [FAM110D, Q8TAY7] shows pKd of 5 or more. not met
